# PROCEDURE_TEXT: Inhibition of Escherichia coli DNA gyrase assessed as reduction in relaxed pBR322 DNA supercoiling activity after 1 hr by electrophoresis
# EXPERIMENTAL_CONTEXT: read-out: IC50
MEASURED_ATTRIBUTE: IC50

These recorded examples may help you get a feel for the data.
O=C(O)c1cn(C2CC2)c2cc(N3CCNCC3)c(F)cc2c1=O	1300 nM
NC[C@@H]1O[C@H](O[C@H]2[C@@H](O)[C@H](O[C@@H]3[C@@H](O)[C@H](N)C[C@H](N)[C@H]3O[C@H]3O[C@H](CN)[C@@H](O)[C@H](O)[C@H]3N)O[C@@H]2COCc2cn(CCN3CCN(c4cc5c(cc4F)c(=O)c(C(=O)O)cn5C4CC4)CC3)nn2)[C@H](N)[C@@H](O)[C@@H]1O	41 nM
NC[C@@H]1O[C@H](O[C@H]2[C@@H](O)[C@H](O[C@@H]3[C@@H](O)[C@H](N)C[C@H](N)[C@H]3O[C@H]3O[C@H](CN)[C@@H](O)[C@H](O)[C@H]3N)O[C@@H]2C(=O)Nc2ccc(-c3cn(Cc4ccc(CN5CCN(c6cc7c(cc6F)c(=O)c(C(=O)O)cn7C6CC6)CC5)cc4)nn3)cc2)[C@H](N)[C@@H](O)[C@@H]1O	85 nM

Proceed to the following item.
Exercise: # query: IC50 of entry NC[C@@H]1O[C@H](O[C@H]2[C@@H](O)[C@H](O[C@@H]3[C@@H](O)[C@H](N)C[C@H](N)[C@H]3O[C@H]3O[C@H](CN)[C@@H](O)[C@H](O)[C@H]3N)O[C@@H]2C(=O)Nc2ccc(-c3cn(CC(O)CN4CCN(c5cc6c(cc5F)c(=O)c(C(=O)O)cn6C5CC5)CC4)nn3)cc2)[C@H](N)[C@@H](O)[C@@H]1O (some centres undefined)
Key: 73 nM

* * *

# System: Escherichia coli
# PROCEDURE_TEXT: Inhibition of protein synthesis in Escherichia coli S30 extracts assessed as luciferase activity after 1 hr by coupled transcription/translation assay
# Assay type: functional
# EXPERIMENTAL_CONTEXT: Escherichia coli, 1 h; read-out: IC50
MEASURED_ATTRIBUTE: pIC50
pIC50 here is simply -log10 of the concentration when that concentration is written in mol/L.

Exercise: # query: pIC50 of entry `NC[C@@H]1O[C@H](O[C@H]2[C@@H](O)[C@H](O[C@@H]3[C@@H](O)[C@H](N)C[C@H](N)[C@H]3O[C@H]3O[C@H](CN)[C@@H](O)[C@H](O)[C@H]3N)O[C@@H]2C(=O)Nc2ccc(-c3cn(Cc4ccc(CN5CCN(c6cc7c(cc6F)c(=O)c(C(=O)O)cn7C6CC6)CC5)cc4)nn3)cc2)[C@H](N)[C@@H](O)[C@@H]1O`
Key: 4.78

Exercise: And then `NC[C@@H]1O[C@H](O[C@H]2[C@@H](O)[C@H](O[C@@H]3[C@@H](O)[C@H](N)C[C@H](N)[C@H]3O[C@H]3O[C@H](CN)[C@@H](O)[C@H](O)[C@H]3N)O[C@@H]2CO)[C@H](N)[C@@H](O)[C@@H]1O` , what is it?
Key: 4.98

Exercise: And then NC[C@@H]1O[C@H](O[C@H]2[C@@H](O)[C@H](O[C@@H]3[C@@H](O)[C@H](N)C[C@H](N)[C@H]3O[C@H]3O[C@H](CN)[C@@H](O)[C@H](O)[C@H]3N)O[C@@H]2C(=O)Nc2ccc(-c3cn(CC(O)CN4CCN(c5cc6c(cc5F)c(=O)c(C(=O)O)cn6C5CC5)CC4)nn3)cc2)[C@H](N)[C@@H](O)[C@@H]1O (some centres undefined) , what is it?
Key: 5.66

Exercise: And then `NC[C@@H]1O[C@H](O[C@H]2[C@@H](O)[C@H](O[C@@H]3[C@@H](O)[C@H](N)C[C@H](N)[C@H]3O[C@H]3O[C@H](CN)[C@@H](O)[C@H](O)[C@H]3N)O[C@@H]2COCc2cn(CCN3CCN(c4cc5c(cc4F)c(=O)c(C(=O)O)cn5C4CC4)CC3)nn2)[C@H](N)[C@@H](O)[C@@H]1O` , what is it?
Key: 4.74
